Data provenance: patent US20140121258A1

# key: entry, value: Kb
molecular target: human prostanoid DP1 receptor (Homo sapiens, UniProt Q13258); construct: expressed in transfected cells; assay: FLIPR Ca2+ signaling antagonist assay, DP1 receptor stable cell line; type: cell-based; conditions: HEK-293 EBNA stable cells with chimeric Gqs, standard agonist BW 245C; NA = inactive (no antagonism or Kb≧10,000 nM)
Sequence (Q13258 whole entry): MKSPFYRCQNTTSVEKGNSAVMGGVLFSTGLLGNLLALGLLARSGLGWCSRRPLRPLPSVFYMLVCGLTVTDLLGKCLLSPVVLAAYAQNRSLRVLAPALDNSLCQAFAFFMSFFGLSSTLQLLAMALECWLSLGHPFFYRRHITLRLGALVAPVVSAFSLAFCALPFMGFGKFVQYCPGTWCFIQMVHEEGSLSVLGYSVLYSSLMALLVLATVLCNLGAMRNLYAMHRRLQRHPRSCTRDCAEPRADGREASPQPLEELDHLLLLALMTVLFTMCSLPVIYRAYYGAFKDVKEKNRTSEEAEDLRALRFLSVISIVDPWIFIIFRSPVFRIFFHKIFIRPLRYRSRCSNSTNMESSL

{"columns": ["compound-structure", "unit-descriptor", "Kb"],
 "data": [
  ["Cc1cc(CCC(=O)O)nn1Cc1cc(Cl)ccc1OCC1CCCC1", "nM", 280],
  ["CCC(CC)COc1ccc(Cl)cc1Cn1nc(CCC(=O)O)cc1C", "nM", 220],
  ["Cc1cc(CCC(=O)O)nn1Cc1cc(C(F)(F)F)ccc1OCC1CCCC1", "nM", 220],
  ["Cc1cc(CCC(=O)O)nn1Cc1cc(Br)ccc1OCC1CCCC1", "nM", 240]
]}
